# condition.context: in DMF, 318.15 K
recorded.metric: solubility (mole fraction)
// no unit, no text: just the number

# lookup: solubility (mole fraction) of C#C[C@]1(O)CC[C@H]2[C@@H]3CCC4=CC(=O)CC[C@@H]4[C@H]3C(=C)C[C@@]21CC
0.109

###

# condition.context: in THF, 278.15 K
recorded.metric: solubility (mole fraction)

# lookup: solubility (mole fraction) of C#C[C@]1(O)CC[C@H]2[C@@H]3CCC4=CC(=O)CC[C@@H]4[C@H]3C(=C)C[C@@]21CC
0.0891

###

# condition.context: in n-butanol, 283.15 K
recorded.metric: solubility (mole fraction)
// no unit, no text: just the number

# lookup: solubility (mole fraction) of C#C[C@]1(O)CC[C@H]2[C@@H]3CCC4=CC(=O)CC[C@@H]4[C@H]3C(=C)C[C@@]21CC
0.00615

###

# condition.context: in n-propanol, 313.15 K
recorded.metric: solubility (mole fraction)

# lookup: solubility (mole fraction) of C#C[C@]1(O)CC[C@H]2[C@@H]3CCC4=CC(=O)CC[C@@H]4[C@H]3C(=C)C[C@@]21CC
0.0124

###

# condition.context: in n-propanol, 273.15 K
recorded.metric: solubility (mole fraction)
// no unit, no text: just the number

# lookup: solubility (mole fraction) of C#C[C@]1(O)CC[C@H]2[C@@H]3CCC4=CC(=O)CC[C@@H]4[C@H]3C(=C)C[C@@]21CC
0.00452

###

# condition.context: in methyl acetate, 298.15 K
recorded.metric: solubility (mole fraction)

# lookup: solubility (mole fraction) of C#C[C@]1(O)CC[C@H]2[C@@H]3CCC4=CC(=O)CC[C@@H]4[C@H]3C(=C)C[C@@]21CC
0.019

###

# condition.context: in n-butanol, 293.15 K
recorded.metric: solubility (mole fraction)
// no unit, no text: just the number

# lookup: solubility (mole fraction) of C#C[C@]1(O)CC[C@H]2[C@@H]3CCC4=CC(=O)CC[C@@H]4[C@H]3C(=C)C[C@@]21CC
0.00904

###

# condition.context: in water, 273.15 K
recorded.metric: solubility (mole fraction)

# lookup: solubility (mole fraction) of C#C[C@]1(O)CC[C@H]2[C@@H]3CCC4=CC(=O)CC[C@@H]4[C@H]3C(=C)C[C@@]21CC
1.38e-05

###

# condition.context: in n-butanol, 298.15 K
recorded.metric: solubility (mole fraction)
// no unit, no text: just the number

# lookup: solubility (mole fraction) of C#C[C@]1(O)CC[C@H]2[C@@H]3CCC4=CC(=O)CC[C@@H]4[C@H]3C(=C)C[C@@]21CC
0.0109

###

# condition.context: in DMF, 303.15 K
recorded.metric: solubility (mole fraction)
// no unit, no text: just the number

# lookup: solubility (mole fraction) of C#C[C@]1(O)CC[C@H]2[C@@H]3CCC4=CC(=O)CC[C@@H]4[C@H]3C(=C)C[C@@]21CC
0.0974

###

# condition.context: in n-propanol, 318.15 K
recorded.metric: solubility (mole fraction)
// no unit, no text: just the number

# lookup: solubility (mole fraction) of C#C[C@]1(O)CC[C@H]2[C@@H]3CCC4=CC(=O)CC[C@@H]4[C@H]3C(=C)C[C@@]21CC
0.0142

###

# condition.context: in DMF, 283.15 K
recorded.metric: solubility (mole fraction)

# lookup: solubility (mole fraction) of C#C[C@]1(O)CC[C@H]2[C@@H]3CCC4=CC(=O)CC[C@@H]4[C@H]3C(=C)C[C@@]21CC
0.0825

###

# condition.context: in n-butanol, 273.15 K
recorded.metric: solubility (mole fraction)
// no unit, no text: just the number

# lookup: solubility (mole fraction) of C#C[C@]1(O)CC[C@H]2[C@@H]3CCC4=CC(=O)CC[C@@H]4[C@H]3C(=C)C[C@@]21CC
0.00421

###

# condition.context: in methyl acetate, 308.15 K
recorded.metric: solubility (mole fraction)
// no unit, no text: just the number

# lookup: solubility (mole fraction) of C#C[C@]1(O)CC[C@H]2[C@@H]3CCC4=CC(=O)CC[C@@H]4[C@H]3C(=C)C[C@@]21CC
0.0229

###

# condition.context: in ethyl acetate, 323.15 K
recorded.metric: solubility (mole fraction)
// no unit, no text: just the number

# lookup: solubility (mole fraction) of C#C[C@]1(O)CC[C@H]2[C@@H]3CCC4=CC(=O)CC[C@@H]4[C@H]3C(=C)C[C@@]21CC
0.0648

###

# condition.context: in THF, 293.15 K
recorded.metric: solubility (mole fraction)
// no unit, no text: just the number

# lookup: solubility (mole fraction) of C#C[C@]1(O)CC[C@H]2[C@@H]3CCC4=CC(=O)CC[C@@H]4[C@H]3C(=C)C[C@@]21CC
0.148

###

# condition.context: in isopropanol, 313.15 K
recorded.metric: solubility (mole fraction)
// no unit, no text: just the number

# lookup: solubility (mole fraction) of C#C[C@]1(O)CC[C@H]2[C@@H]3CCC4=CC(=O)CC[C@@H]4[C@H]3C(=C)C[C@@]21CC
0.0154

###

# condition.context: in n-propanol, 283.15 K
recorded.metric: solubility (mole fraction)

# lookup: solubility (mole fraction) of C#C[C@]1(O)CC[C@H]2[C@@H]3CCC4=CC(=O)CC[C@@H]4[C@H]3C(=C)C[C@@]21CC
0.00585

###

# condition.context: in acetone, 283.15 K
recorded.metric: solubility (mole fraction)

# lookup: solubility (mole fraction) of C#C[C@]1(O)CC[C@H]2[C@@H]3CCC4=CC(=O)CC[C@@H]4[C@H]3C(=C)C[C@@]21CC
0.0148

###

# condition.context: in acetone, 303.15 K
recorded.metric: solubility (mole fraction)
// no unit, no text: just the number

# lookup: solubility (mole fraction) of C#C[C@]1(O)CC[C@H]2[C@@H]3CCC4=CC(=O)CC[C@@H]4[C@H]3C(=C)C[C@@]21CC
0.0224

###

# condition.context: in n-propanol, 323.15 K
recorded.metric: solubility (mole fraction)
// no unit, no text: just the number

# lookup: solubility (mole fraction) of C#C[C@]1(O)CC[C@H]2[C@@H]3CCC4=CC(=O)CC[C@@H]4[C@H]3C(=C)C[C@@]21CC
0.0159

###

# condition.context: in THF, 308.15 K
recorded.metric: solubility (mole fraction)
// no unit, no text: just the number

# lookup: solubility (mole fraction) of C#C[C@]1(O)CC[C@H]2[C@@H]3CCC4=CC(=O)CC[C@@H]4[C@H]3C(=C)C[C@@]21CC
0.223

###

# condition.context: in THF, 298.15 K
recorded.metric: solubility (mole fraction)
// no unit, no text: just the number

# lookup: solubility (mole fraction) of C#C[C@]1(O)CC[C@H]2[C@@H]3CCC4=CC(=O)CC[C@@H]4[C@H]3C(=C)C[C@@]21CC
0.173

###

# condition.context: in ethanol, 293.15 K
recorded.metric: solubility (mole fraction)
// no unit, no text: just the number

# lookup: solubility (mole fraction) of C#C[C@]1(O)CC[C@H]2[C@@H]3CCC4=CC(=O)CC[C@@H]4[C@H]3C(=C)C[C@@]21CC
0.00343

###

# condition.context: in THF, 313.15 K
recorded.metric: solubility (mole fraction)

# lookup: solubility (mole fraction) of C#C[C@]1(O)CC[C@H]2[C@@H]3CCC4=CC(=O)CC[C@@H]4[C@H]3C(=C)C[C@@]21CC
0.263

###

# condition.context: in n-butanol, 303.15 K
recorded.metric: solubility (mole fraction)
// no unit, no text: just the number

# lookup: solubility (mole fraction) of C#C[C@]1(O)CC[C@H]2[C@@H]3CCC4=CC(=O)CC[C@@H]4[C@H]3C(=C)C[C@@]21CC
0.0126

###

# condition.context: in n-propanol, 298.15 K
recorded.metric: solubility (mole fraction)

# lookup: solubility (mole fraction) of C#C[C@]1(O)CC[C@H]2[C@@H]3CCC4=CC(=O)CC[C@@H]4[C@H]3C(=C)C[C@@]21CC
0.00865

###

# condition.context: in DMF, 273.15 K
recorded.metric: solubility (mole fraction)
// no unit, no text: just the number

# lookup: solubility (mole fraction) of C#C[C@]1(O)CC[C@H]2[C@@H]3CCC4=CC(=O)CC[C@@H]4[C@H]3C(=C)C[C@@]21CC
0.0757

###

# condition.context: in methyl acetate, 288.15 K
recorded.metric: solubility (mole fraction)
// no unit, no text: just the number

# lookup: solubility (mole fraction) of C#C[C@]1(O)CC[C@H]2[C@@H]3CCC4=CC(=O)CC[C@@H]4[C@H]3C(=C)C[C@@]21CC
0.0153

###

# condition.context: in isopropanol, 283.15 K
recorded.metric: solubility (mole fraction)
// no unit, no text: just the number

# lookup: solubility (mole fraction) of C#C[C@]1(O)CC[C@H]2[C@@H]3CCC4=CC(=O)CC[C@@H]4[C@H]3C(=C)C[C@@]21CC
0.00633
